So I've got a bunch of molecules here, and I need their Papp values.
assay procedure: clinical
experimental parameters: human
Give bare numbers, in ×10⁻⁶ cm/s.

INSERT INTO measurements (molecule, measurement_units, val) VALUES
  ('CN1CC(=O)NC1=N [CREATININE]', '×10⁻⁶ cm/s', 29);

Dear colleague, could you please provide Papp for the molecules listed below?
1. CC1=C(/C=C/C(C)=C/C=C/C(C)=C/C(=O)O)C(C)(C)CCC1 [TRETINOIN]
2. COCCc1ccc(OCC(O)CNC(C)C)cc1 (stereo unspecified) [METOPROLOL]

**Result**
1. 99
2. 90

Dear colleague, could you please provide Papp for the molecules listed below?
1. N=C(N)NC(=O)c1nc(Cl)c(N)nc1N [AMILORIDE]
2. CC(C)[C@H](N)C(=O)OCCOCn1cnc2c(=O)[nH]c(N)nc21 [VALACYCLOVIR]

**Result**
163
166

Dear colleague, could you please provide Papp for the molecules listed below?
1. CC(C(=O)O)c1cccc(C(=O)c2ccccc2)c1 (stereo unspecified) [KETOPROFEN]
2. O=C(O)c1ccccc1O [SALICYLIC ACID]
3. CNCCCN1c2ccccc2CCc2ccccc21 [DESIPRAMINE]
4. O=c1c(O[C@@H]2O[C@H](CO)[C@@H](O)[C@H](O)[C@H]2O)c(-c2ccc(O[C@@H]3O[C@H](CO)[C@@H](O)[C@H](O)[C@H]3O)c(O)c2)oc2cc(O)cc(O)c12
5. O [WATER]
6. CCOC(=O)[C@H](CCc1ccccc1)N[C@@H](C)C(=O)N1CCC[C@H]1C(=O)O
7. N[C@@H](Cc1ccccc1)C(=O)O [PHENYLALANINE]

**Result**
1. 840
2. 267
3. 440
4. 890
5. 140
6. 157
7. 336

Dear colleague, could you please provide Papp for the molecules listed below?
1. CN/C(=N/CCSCc1nc[nH]c1C)NC#N [CIMETIDINE]
2. COC1=CC(=O)C[C@@H](C)[C@]12Oc1c(Cl)c(OC)cc(OC)c1C2=O [GRISEOFULVIN]
3. C[C@](N)(Cc1ccc(O)c(O)c1)C(=O)O [METHYLDOPA]

**Result**
1: 26; 2: 114; 3: 10

Dear colleague, could you please provide Papp for the molecules listed below?
1. CC(C)C[C@H](N)C(=O)O [LEUCINE]
2. OC[C@H]1OC(O)[C@H](O)[C@@H](O)[C@@H]1O (stereo partly specified) [DEXTROSE]

**Result**
1: 620; 2: 560

Dear colleague, could you please provide Papp for the molecules listed below?
1. CCCCc1nc(Cl)c(CO)n1Cc1ccc(-c2ccccc2-c2nn[nH]n2)cc1 [LOSARTAN]
2. CN1C(C(=O)Nc2ccccn2)=C(O)c2ccccc2S1(=O)=O [PIROXICAM]
3. N[C@@H](Cc1ccc(O)c(O)c1)C(=O)O [LEVODOPA]

**Result**
114
665
340

**Query** Fill in Papp for record CC(C)(C)NCC(O)c1cc(O)cc(O)c1 (stereo unspecified) [TERBUTALINE]
**Result** 30
